Molecular target: CHRM2 (Homo sapiens, UniProt P08172)
Construct: gly-ser flexible linker […]
Sequence (P08172 whole entry, species assumed): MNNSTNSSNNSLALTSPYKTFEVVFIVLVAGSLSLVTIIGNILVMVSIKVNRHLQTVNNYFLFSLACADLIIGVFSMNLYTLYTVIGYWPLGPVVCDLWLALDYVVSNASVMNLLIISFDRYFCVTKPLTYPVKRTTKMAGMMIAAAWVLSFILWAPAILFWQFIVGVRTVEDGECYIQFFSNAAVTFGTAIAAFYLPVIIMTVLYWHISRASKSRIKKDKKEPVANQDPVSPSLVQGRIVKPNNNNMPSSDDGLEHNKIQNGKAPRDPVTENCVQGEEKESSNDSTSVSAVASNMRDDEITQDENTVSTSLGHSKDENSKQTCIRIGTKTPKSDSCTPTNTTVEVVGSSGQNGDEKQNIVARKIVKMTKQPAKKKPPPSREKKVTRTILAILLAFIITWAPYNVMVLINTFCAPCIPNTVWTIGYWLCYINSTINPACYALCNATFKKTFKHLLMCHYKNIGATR
Experiment: Arrestin-EA / GPCR-PK EFC screening assay, CHO Arrestin + CHRM2-PK2 (wild-type ED)
Settings: FIG. 4
property-label: pEC50
Please express pEC50 as -log10 of the molar concentration.

stdin: Value lookup for pEC50; key = O=C1CCCN1CC#CCN1CCCC1 [oxotremorine]
stdout: 5.20
